A compilation of published pKi results with Melanocortin receptor 4 (Homo sapiens, UniProt P32245).
Remember, pKi is on a log scale: it is -log10 of the molar concentration.

-- ask Please tell me the measured pKi for NCCCNC(=O)C(Cc1c[nH]c2ccccc12)NC(=O)Cc1cccc2ccccc12 (centres unmarked) ; system: Melanocortin receptor 4 (Homo sapiens, UniProt P32245).
-- reply 4.60

-- ask # return pKi of CCCC(=O)N1CCN(C(=O)[C@@H]2CN(c3cccnn3)C[C@H]2c2ccc(F)cc2F)CCCC1c1ccccc1 (mixture of isomers) (system: Melanocortin receptor 4 (Homo sapiens, UniProt P32245))
-- reply 7.11

-- ask For Melanocortin receptor 4 (Homo sapiens, UniProt P32245), give pKi of the listed molecule: CC(=O)N1CCN(C(=O)[C@@H]2CN(c3cccnn3)C[C@H]2c2ccc(F)cc2F)CCCC1c1ccccc1 (mixture of isomers)
-- reply 6.50

-- ask Find the measured pKi of "N=C(N)NN=Cc1cccn1-c1cc(Cl)cc(Cl)c1" with Melanocortin receptor 4 (Homo sapiens, UniProt P32245) as test system.
-- reply 5.44

-- ask Fill: pKi (Melanocortin receptor 4 (Homo sapiens, UniProt P32245)) for this molecule "CC(=O)N1CCN(C(=O)[C@@H]2CN(c3ccc4nncn4n3)C[C@H]2c2ccc(Cl)cn2)CCC[C@@H]1c1ccc(Cl)cc1"
-- reply 6.65

---

Assay read-out pKi on Melanocortin receptor 4 (Homo sapiens); records merged from the literature.
Units for pKi: none; it is -log10 of a concentration expressed in mol/L.

-- ask Tell me measured pKi for COC(=O)N1CCN(C(=O)[C@@H]2CN(C(C)(C)C)C[C@H]2c2ccc(OC)cc2F)CCCC1c1ccc(Cl)cc1 (stereo partly shown) please.
-- reply 6.42

-- ask Please list pKi recorded for the molecule Cn1nc(N2C[C@@H](C(=O)N3CCCC(c4ccc(Cl)cc4)N(S(C)(=O)=O)CC3)[C@H](c3ccc(F)cc3F)C2)ccc1=O (mixture of isomers)
-- reply 6.91

-- ask For the molecule "N=C(N)NN=Cc1cccn1-c1ccc(C(F)(F)F)cc1" , give its reported pKi.
-- reply 7.15

-- ask Given the molecule CCn1c2ccccc2c2cc(NC(=O)C(Cc3c[nH]c4ccccc34)NC(=O)CCCNC(=N)N)ccc21 (stereo not shown) , write its reported pKi.
-- reply 4.68

-- ask Give reported pKi value for CCn1c2ccccc2c2cc(NC(=O)C(Cc3c[nH]c4ccccc34)NC(=O)CCCN)ccc21 (stereo not shown)
-- reply 4.74

-- ask Provide measured pKi value, entry: "CC(C)C(=O)N1CCN(C(=O)[C@@H]2CN(C(C)(C)C)C[C@H]2c2ccc(F)cc2F)CCC[C@H]1c1ccc(Cl)cc1"
-- reply 6.70

-- ask Input COC(=O)N1CCN(C(=O)[C@@H]2CN(c3ccc(C#N)nn3)CC2c2ccc(OC)cc2F)CCC[C@H]1c1ccc(Cl)cc1 (stereo partly shown) , output reported pKi.
-- reply 7.50
